Origin of measurements: patent US11236084B2

- Target desc: recombinant human NF-kappaB-inducing kinase (NIK/MAP3K14) (Homo sapiens, UniProt Q99558)
- Sequence (Q99558 whole entry): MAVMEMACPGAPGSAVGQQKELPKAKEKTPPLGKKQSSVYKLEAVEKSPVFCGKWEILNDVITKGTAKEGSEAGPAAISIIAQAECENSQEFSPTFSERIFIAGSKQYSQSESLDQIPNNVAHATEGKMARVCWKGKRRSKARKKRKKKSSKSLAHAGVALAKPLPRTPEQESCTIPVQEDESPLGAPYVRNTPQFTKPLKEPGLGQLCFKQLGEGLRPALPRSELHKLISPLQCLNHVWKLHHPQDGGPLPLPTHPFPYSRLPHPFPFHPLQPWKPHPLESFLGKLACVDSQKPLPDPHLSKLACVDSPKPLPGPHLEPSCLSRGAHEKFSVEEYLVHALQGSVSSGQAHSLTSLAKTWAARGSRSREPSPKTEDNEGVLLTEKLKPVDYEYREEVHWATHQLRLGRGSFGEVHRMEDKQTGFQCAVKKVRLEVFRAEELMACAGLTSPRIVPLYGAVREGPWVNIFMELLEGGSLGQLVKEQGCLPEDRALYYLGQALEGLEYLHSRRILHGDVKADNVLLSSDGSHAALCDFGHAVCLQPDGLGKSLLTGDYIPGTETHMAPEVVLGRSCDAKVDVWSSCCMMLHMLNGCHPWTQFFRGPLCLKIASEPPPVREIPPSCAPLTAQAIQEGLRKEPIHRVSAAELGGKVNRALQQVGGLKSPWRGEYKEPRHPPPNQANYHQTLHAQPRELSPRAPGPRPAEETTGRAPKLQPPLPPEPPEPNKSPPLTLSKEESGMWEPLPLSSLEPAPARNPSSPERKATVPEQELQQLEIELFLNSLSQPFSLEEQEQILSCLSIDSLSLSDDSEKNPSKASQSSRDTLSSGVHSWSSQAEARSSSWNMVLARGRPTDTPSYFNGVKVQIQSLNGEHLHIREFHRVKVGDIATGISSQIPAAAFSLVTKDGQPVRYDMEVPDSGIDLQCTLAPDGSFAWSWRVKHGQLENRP
- Test name: Biological Assay B: inhibition of auto-phosphorylation of recombinant human NIK/MAP3K14 (AlphaScreen), performed at 2 locations
- Type: biochemical
- Test context: location 1; AlphaScreen auto-phosphorylation; averaged values; read-out: Assay B location 1 IC50
pIC50: −log10 of the molar value.
Rule: pIC50 under 8 gives condition not met, otherwise condition met.

Examples with answers:
> print(dat)
                                   compound                               target.desc     assigned.class
1  COc1cc(OCCN(C)C)c(Cl)cc1Nc1nccc(-c2cnc3c(c2)C(C)(CO)CN3)n1 (stereo not drawn) [Compound 314]  recombinant human NF-kappaB-inducing kinase (NIK/MAP3K14) (Homo sapiens, UniProt Q99558)      condition met
2  COc1cc(C(=O)N(C)C)ccc1Nc1nccc(-c2cnc3c(c2)C(C)(CO)CN3)n1 (stereo not drawn) [Compound 153]  recombinant human NF-kappaB-inducing kinase (NIK/MAP3K14) (Homo sapiens, UniProt Q99558)  condition not met
3  COc1cc(N2CCC(O)CC2)c(Cl)cc1Nc1nccc(-c2cnc3c(c2)C(C)(CO)CN3)n1 (stereo not drawn) [Compound 301]  recombinant human NF-kappaB-inducing kinase (NIK/MAP3K14) (Homo sapiens, UniProt Q99558)      condition met
4  CCN1CCN(c2cc(OC)c(Nc3nccc(-c4cnc5c(c4)C(C)(CO)CN5)n3)cc2F)CC1 (stereo not drawn) [Compound 275]  recombinant human NF-kappaB-inducing kinase (NIK/MAP3K14) (Homo sapiens, UniProt Q99558)      condition met
5  COc1cc(N2CC(OC)C2)c(Cl)cc1Nc1nccc(-c2cnc3c(c2)C(C)(CO)CN3)n1 (stereo not drawn) [Compound 287]  recombinant human NF-kappaB-inducing kinase (NIK/MAP3K14) (Homo sapiens, UniProt Q99558)      condition met

[in] Is the recorded value of pIC50 equal to or greater than 8 for this compound? CC1(CO)CNc2ncc(-c3ccnc(Nc4cc(Cl)c(N5CCOCC5)cc4Cl)n3)cc21 (single isomer, unassigned) [Compound 266]
[out] condition met

[in] Is the recorded value of pIC50 equal to or greater than 8 for this compound? COc1cc(N2CCC(N(C)C)CC2)c(Cl)cc1Nc1nccc(-c2cnc3c(c2)C(C)(C)CN3)n1 [Compound 330]
[out] condition met

[in] Is the recorded value of pIC50 equal to or greater than 8 for this compound? CCN1CCN(c2cc(OC)c(Nc3nccc(-c4cnc5c(c4)C(C)(C)CN5)n3)cc2Cl)CC1 [Compound 329]
[out] condition met

[in] Is the recorded value of pIC50 equal to or greater than 8 for this compound? COc1cc(N2CC(OC)C2)c(F)cc1Nc1nccc(-c2cnc3c(c2)C(C)(CO)CN3)n1 (stereo not drawn) [Compound 270]
[out] condition not met

[in] Is the recorded value of pIC50 equal to or greater than 8 for this compound? COc1cc(Cl)ccc1Nc1nccc(-c2cnc3c(c2)C(C)(CO)CN3)n1 (stereo not drawn) [Compound 172]
[out] condition not met

[in] Is the recorded value of pIC50 equal to or greater than 8 for this compound? COc1cc(C(=O)N2CCC(OC)C2)c(Cl)cc1Nc1nccc(-c2cnc3c(c2)C(C)(CO)CN3)n1 (stereo not drawn) [Compound 290]
[out] condition met

[in] Is the recorded value of pIC50 equal to or greater than 8 for this compound? COCCN1CC(c2cc(OC)c(Nc3nccc(-c4cnc5c(c4)C(C)(CO)CN5)n3)cc2Cl)C1 (stereo not drawn) [Compound 321]
[out] condition met
